# Src (p60^c-src) (Homo sapiens): IC50 values follow
# Sequence (P12931 whole entry): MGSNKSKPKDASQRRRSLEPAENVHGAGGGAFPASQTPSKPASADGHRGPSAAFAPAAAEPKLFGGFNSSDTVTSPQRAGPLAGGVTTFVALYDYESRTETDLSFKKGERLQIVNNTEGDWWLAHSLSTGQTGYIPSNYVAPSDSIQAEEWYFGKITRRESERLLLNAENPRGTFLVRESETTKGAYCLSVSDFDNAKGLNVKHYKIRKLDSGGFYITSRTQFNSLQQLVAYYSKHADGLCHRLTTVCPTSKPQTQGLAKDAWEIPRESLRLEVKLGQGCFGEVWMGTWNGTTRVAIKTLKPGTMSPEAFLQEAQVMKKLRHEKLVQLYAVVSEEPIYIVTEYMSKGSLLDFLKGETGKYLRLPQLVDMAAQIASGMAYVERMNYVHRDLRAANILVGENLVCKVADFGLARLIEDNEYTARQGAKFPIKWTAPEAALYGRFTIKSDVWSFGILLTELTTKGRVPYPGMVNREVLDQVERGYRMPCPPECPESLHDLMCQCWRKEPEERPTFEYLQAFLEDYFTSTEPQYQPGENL
assay.metric: IC50 (pM)

For orientation, consider the following solved cases.
molecule="O=C(NC[C@H]1CCCN1)c1nc2nc(Nc3ccc(OCCO)cc3)ncc2cc1-c1c(Cl)cccc1Cl [Example 6-5]" measured_value=600
molecule="CCN(CC)CCOc1ccc(Nc2ncc3cc(-c4c(Cl)cccc4Cl)c(C#N)nc3n2)cc1 [Example 7-1]" measured_value=500

(a) CS(=O)(=O)NCCNC(=O)c1nc2nc(Nc3cccc(NS(C)(=O)=O)c3)ncc2cc1-c1c(Cl)cccc1Cl [Example 6-6]
(b) O=C(NC[C@H]1CCCN1)c1nc2nc(Nc3ccc(N4CCOCC4)cc3)ncc2cc1-c1c(Cl)cccc1Cl [Example 1]
Problem: # returns the entry with the larger IC50; inputs a and b Reply briefly: the label of your chosen item.
Solution: b
(b: 400 pM, a: 200 pM)
